tested on: barnyardgrass (Echinochloa crus-galli); assay: Test A preemergence; format: in vivo; conditions: Echinochloa crus-galli, pre-emergence, 240 h, 125 g ai/ha, preemergence; visual injury rating, 0 to 100 scale where 0 is no effect and 100 is complete control; approximately 10 d; read-out: Barnyardgrass plant response rating
Please mark T if the recorded pest or weed control at 125 g/ha is equal to or greater than 60%, and F if it falls below.

// known answers, use as guide
1) CN1C[C@H](c2ccc(C(F)(F)F)cc2)[C@@H](C(=O)Nc2ccccc2-n2cccn2)C1=O [Compound 1283] = F
2) O=C1NC[C@H](c2ccc(C(F)(F)F)cc2)C1C(=O)Nc1c(F)cccc1CO (some centres unmarked) [Compound 1243] = F
3) Cc1cc(F)cc([C@H]2CNC(=O)[C@@H]2C(=O)Nc2ccccc2S(C)(=O)=O)c1 [Compound 1307] = T
4) Cc1nc([C@H]2CN(C)C(=O)[C@@H]2C(=O)Nc2ccccc2F)cs1 [Compound 1280] = F
5) CN1C[C@H](c2csc3c2CCC3)[C@@H](C(=O)Nc2ccccc2F)C1=O [Compound 1277] = T

Attention now turns to another entry.
Reported pest or weed control at 125 g/ha at or above 60%? CN1C[C@H](c2csc3c2CCOC3)[C@@H](C(=O)Nc2cccc(F)c2F)C1=O [Compound 1268] T
